targetUnderTest: T1, Lsb3, P43603
T1 sequence (P43603 385-451, looked up): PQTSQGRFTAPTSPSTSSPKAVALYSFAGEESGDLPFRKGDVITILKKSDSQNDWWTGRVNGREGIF
experimentSummary: SPOT array
conditionDetails: median of control spots 406
# label = T if SPOT intensity < 20 else F

Input line: # strict comparison: is reported SPOT intensity < 20? input = ALFRLSFFFPLDPAY
Output line: T

Input line: // query: ALRRRLPVTRSKINW
Output line: T

Input line: // query: LTRRFPFLFPFDTRM
Output line: T

Input line: // query: RRTRLRPPTPLSQLL
Output line: T

Input line: // query: LASNSPPVYPKRIRH
Output line: F

Input line: // query: QTREPNEPPPPSPAM
Output line: T

Input line: // query: GTIARPLFLVVLFFI
Output line: T

Input line: // query: SKIRPTPRKPSRMAT
Output line: F

Input line: // query: DLFKPLPEPPTELGR
Output line: T
